Test system: NCI-H522 lung
Assay: NCI-60 one-dose screen, 48 h
Settings: 10 µM unless noted
This is part of a sample that, as a whole, favours compounds with a hit. Of some 83,000 tested, about 20% had one in any assay. Activity calls are given as the source filed them. How the source made its calls: active means growth percent below 10; inactive means the rest.
API: response.call in Yes for active, No for inactive

## Input Write down the call the test reported for this compound. Item: `S=C(NCCc1ccccc1)Nc1ccc(OCc2nc3ccccc3[nH]2)cc1`
## Output No

## Input What did the test return for `CN(C)c1ccnc(CNCCSC2(c3ccc(C(F)(F)F)cc3)c3ccccc3C=Cc3ccccc32)c1` ?
## Output Yes

## Input Which outcome was entered for the compound `O=C(Nc1ccccc1)N1CCN(c2cc(-c3cn(-c4ccccc4)nc3-c3cccc(O)c3)ccn2)CC1` in this test?
## Output No

## Input Recorded test call requested for COc1cc2c(c(OC)c1OC)C(=O)CC(c1cccc(NC(=O)[C@@H](N)CC(C)C)c1)O2 (stereo not given in full)
## Output No

====

System: UACC-62 melanoma
Assay: NCI-60 one-dose screen, 48 h
Conditions: 10 µM unless noted
About 83,000 compounds went through this panel and 20% of them were active in at least one assay; those are over-represented in the sample as a whole. Calls of active or inactive are those of the source. The calls were made as follows: active = growth percent below 10; inactive = the rest.
API: response.call in active, inactive

Solved entries:
CCOC(=O)/C=C/c1cccc2c1C(=O)NC(C)(c1cc3cc(Cl)ccc3oc1=O)N2 (configuration not stated)	inactive
O=C1N/C(=N\c2nccs2)S/C1=C\C=C/c1ccccc1	active
O=c1oc2ccccc2cc1-c1csc(N2N=C(c3ccccc3)CC2c2ccc(N3CCOCC3)cc2)n1 (configuration not stated)	inactive
CCOC(=O)COc1c(OC)c(OC)cc2oc(-c3cccc(C(=O)Nc4ccc(Cl)cc4)c3)cc(=O)c12	inactive
O=C(NNc1nc2cc(F)ccc2n2c(C(=O)N3CCN(C4CC4)CC3)ccc12)c1ncccn1	active
CC(=O)Nc1ccc(C(=O)NC(=S)Nc2ccc(S(N)(=O)=O)cc2)cc1	inactive

## Input Per the records of this test, what outcome belongs to COc1cc2c(c(OC)c1OC)C(=O)CC(c1cccc(NC(=O)c3cccc([N+](=O)[O-])c3)c1)O2 (configuration not stated) ?
## Output inactive

## Input Field: outcome | Entry: `COc1ccc(-c2ccnc(SCc3cc4cc(OC)ccc4[nH]c3=O)n2)cc1`
## Output inactive

## Input Dear colleague, could you share the recorded outcome for CC(=O)OCC1OC(OC2C(COC(C)=O)OC(n3cc(COc4ccc5ccc(=O)oc5c4)nn3)C(OC(C)=O)C2OC(C)=O)C(OC(C)=O)C(OC(C)=O)C1OC(C)=O (configuration not stated) when you have a moment?
## Output inactive

## Input Would you mind telling me which call this test gave `Cc1ccc(-c2nc(Nc3ccccc3S(N)(=O)=O)c3ccccc3n2)cc1` ?
## Output inactive

## Input // return assay outcome for `O=C1C(=Nc2ccc(F)c(Cl)c2)c2cccc3cccc1c23`
## Output inactive

## Input What is the recorded call for this molecule in the test? CC1CCCCN1CCCNC(=O)N/C(N)=N/c1nc2ccccc2s1 (configuration not stated)
## Output active

====

System: KM12 colon
Assay: NCI-60 one-dose screen, 48 h (100 = growth as untreated, 0 = no growth, -100 = all killed)
Conditions: 10 µM unless noted
This is part of a sample that, as a whole, favours compounds with a hit. Of some 83,000 tested, about 20% had one in any assay.
Here the recorded growth is given for each entry.
Give the number; % is assumed, so skip it.

COc1ccc(NC(=O)[C@H](CO)NC(=O)OC(C)(C)C)cc1C(=O)Nc1cccc(C2CC(=O)c3c(cc(OC)c(OC)c3OC)O2)c1 (some centres undefined)	43.8
Cc1ccccc1[C@H]1C(C(=O)c2ccc(Cl)cc2)C2(N[C@@H]1c1ccccc1)C(=O)Nc1ccccc12 (some centres undefined)	-30.8

## Input Need growth, item C=C1CCC2C3(C)COC(c4cccs4)OC3CCC2(C)C1CC(Sc1ccccc1)C1=CCOC1=O (centres undefined)
## Output 89.2

## Input Entry `CN(C)c1ccnc(CNCCSC2(c3ccc(C(F)(F)F)cc3)c3ccccc3C=Cc3ccccc32)c1` : reported growth = ?
## Output -31.5
